Test system: ACHN
Assay: NCI tumour cell line growth inhibition, 48 h
Activity calls are given as the source filed them. No stated cut-off is given here; in the data, active = GI50 up to about 1.1 µM and inactive = higher.
Reported GI50 values for the following compounds.
measurement_label: GI50

# compound, measurement_label, recorded_value
rows = [
    ("CC(=O)O[C@@H]1CN(S(=O)(=O)c2ccc(C)cc2)C[C@@H]1C1CCCCC1", "GI50", "37.5 µM (inactive)"),
    ("Cc1ccc(C)c2c1CCc1cc3ccccc3nc1-2", "GI50", "> 100 µM (inactive)"),
    ("CCC1(c2ccc(N3C(=O)c4cc(OC)c(OC)cc4C3=O)cc2)CCC(=O)NC1=O (stereo unspecified)", "GI50", "> 10 µM (inactive)"),
    ("Cc1ccc(C2SC(=N)Nc3c2c(C)nn3C(=O)c2ccc(Cl)cc2)cc1 (stereo unspecified)", "GI50", "> 10 µM (inactive)"),
    ("Cc1ccc(S(=O)(=O)N2CCC2c2ccccc2)cc1 (stereo unspecified)", "GI50", "> 100 µM (inactive)"),
    ("Cc1cc2c(c(/C=N/Cc3ccccc3)c1)OC1(C=C2)Oc2ccccc2C(=O)N1C (stereo unspecified)", "GI50", "20.7 µM (inactive)"),
]

* * *

Tested on: LOX IMVI
Experiment: NCI tumour cell line growth inhibition, 48 h
Calls of active or inactive are those of the source. No stated cut-off is given here; in the data, active = GI50 up to about 1.1 µM and inactive = higher.

# compound, GI50
measured = [
    ("COc1ccc(/C(Cl)=C(\\C=N/O)c2ccc(OC)c(OC)c2)cc1OC", "> 100 µM (inactive)"),
    ("CC(=O)NN/C=N/C(C#N)=C(\\N)C#N", "> 100 µM (inactive)"),
    ("O=S1OC[C@H](CCCl)O1 (stereo not given in full)", "83.6 µM (inactive)"),
    ("c1ccc(/N=C(/Nc2ccccc2)N2CCCC2)cc1", "> 100 µM (inactive)"),
    ("CN(Cc1cnc2nc(N)nc(N)c2n1)c1ccc(C(=O)NC23CC4CC(CC(C4)C2)C3)cc1", "5.48 µM (inactive)"),
]

* * *

Reported GI50 values for the following compounds.
Tested on: U-251
Test: NCI tumour cell line growth inhibition, 48 h
Active and inactive are the calls of the source. Cut-off read from the data, not from the text of the source: active = GI50 up to about 1.1 µM and inactive = higher.

# compound, GI50
data = [
    ("C=CCC(SC)C1=C(C)C(=O)c2ccccc21 (stereo not given)", "> 10 µM (inactive)"),
    ("O=C(/C=C\\c1ccccc1)Oc1ccc(/C=C2\\CCC/C(=C\\c3ccc(OC(=O)/C=C\\c4ccccc4)cc3)C2=O)cc1", "> 100 µM (inactive)"),
    ("COc1ccc(N2C(=O)c3cccnc3S2(=O)=O)cc1", "> 100 µM (inactive)"),
    ("CN(CCCNC(=O)c1cc(-c2ccccc2)nc2ccccc12)CCCNC(=O)c1cc(-c2ccccc2)nc2ccccc12", "2.04 µM (inactive)"),
    ("Cc1ccc(NC(=O)C(=O)C(C(=O)c2ccc3ccccc3c2)C2OC(=O)c3ccccc32)c(C)c1 (stereo not given)", "3.64 µM (inactive)"),
    ("CCCCCCCC1(N=[N+]=[N-])C(=O)Nc2ccccc2C1=O (stereo not given)", "15.1 µM (inactive)"),
    ("O=C1/C(=C/c2ccc(Cl)cc2)CSc2ccccc21", "5.87 µM (inactive)"),
    ("CC1=NNC(=O)C1C1CC(c2c[nH]c3ccccc23)=NN(C(N)=O)C1=O (stereo not given)", "51.2 µM (inactive)"),
    ("c1ccc(C[N+]23CN4CN(CN(C4)C2)C3)cc1", "18.4 µM (inactive)"),
    ("COc1ccc(CCNC(=O)Cc2ccccc2CO)cc1OC", "> 100 µM (inactive)"),
]

* * *

Tested on: CAKI-1
Assay: NCI tumour cell line growth inhibition, 48 h
Active and inactive are the calls of the source. No stated cut-off is given here; in the data, active = GI50 up to about 1.1 µM and inactive = higher.
Labels: active, inactive

# molecule, label
rows = [
    ("NC(CSC1(c2ccc(Cl)cc2)c2ccccc2-c2ccccc21)C(=O)O (stereo not given)", "inactive"),
    ("O=C(O)c1ccc([N+](=O)[O-])c2cc3cnccc3nc12", "inactive"),
    ("CC(C)OC(=O)C1=C2c3ncccc3C(=O)N2[C@@H](Cl)[C@@H](Cl)[C@@H]1Cl", "inactive"),
    ("CCOC(=O)CCC(NC(=O)c1ccc(Oc2nc3ccccc3nc2-c2ccccc2)cc1)C(=O)OCC (stereo not given)", "inactive"),
    ("COc1cc(C(=O)C/C(CCCC(=O)Nc2ccccc2[N+](=O)[O-])=N/NC(=O)c2cc3ccccc3cc2O)ccc1O", "inactive"),
    ("O=C(OCc1ccccc1)N(CCCCN(CCCNCc1ccccc1)C(=O)OCc1ccccc1)CCCNCc1ccccc1", "inactive"),
    ("C=CC(C)(O)/C=C/C=C(\\C)C(CC1OC1(C)C)OC(=O)/C(C)=C\\C (stereo not given)", "inactive"),
    ("CC1(c2ccc(Cl)cc2)CC(c2ccc(Cl)cc2)=C(C#N)C(=C(C#N)C#N)N1 (stereo not given)", "inactive"),
    ("N#Cc1c(-c2ccccc2)c(/C=N/c2cccc(C(F)(F)F)c2)c(=O)n2c1[nH]c1ccccc12", "inactive"),
    ("O=C1CSC(=S)N1c1ccc(F)cc1F", "inactive"),
    ("COC1/C=C/C(C)C(O)CC(O)/C=C/C(C)C(C(C)C(OC)C(C)CCC(=O)C(C)C(C/C=C/N(C)C=O)OC)OC(=O)/C=C/C=C(\\C)CC(OC)CC2=CC(=O)O[C@@H](C(C)C(OC)C1)[C@H]2O (stereo not given in full)", "active"),
    ("O=c1c2c3c(sc2nc2n1N=C(c1ccc(Cl)cc1)CS2)CCCC3", "inactive"),
    ("CCC(=O)CCC1=Nc2nnc(CCCCc3nnc4n3C(=O)C(CCC(=O)CC)=N4)n2C1=O", "inactive"),
    ("CC(=O)OCC1OC(n2c(=S)n(-c3ccccc3)c(=O)c3cc(Br)ccc32)C(OC(C)=O)C1OC(C)=O (stereo not given)", "inactive"),
    ("N#Cc1ccc(N2CCOCC2)cc1", "inactive"),
    ("Nc1ccc2ncc(Nc3ccc(F)cc3)nc2c1", "inactive"),
    ("CCCCCCCC1(N=[N+]=[N-])C(=O)Nc2ccccc2C1=O (stereo not given)", "inactive"),
    ("O=C(O)C1OC(n2cc(F)c(=O)[nH]c2=O)CC1O (stereo not given)", "inactive"),
    ("COc1ccc(CN(Cc2ccc(OC)cc2)C(=O)CC2(O)CCc3ccccc3C2)cc1 (stereo not given)", "inactive"),
    ("Cc1ncc(-c2nnnn2-c2ccccc2)c(C(=O)O)n1", "inactive"),
]

* * *

Test system: SN12C
Test: NCI tumour cell line growth inhibition, 48 h
The source made the active and inactive calls. Cut-off read from the data, not from the text of the source: active = GI50 up to about 1.1 µM and inactive = higher.
Reported GI50 values for the following compounds.
measurement_label: GI50

# compound, measurement_label, recorded_value
data = [
    ("CCOc1ccc(/N=N/C2C(=O)N(C(=O)CC(=O)Nc3ccc(C)cc3)N=C2C)cc1 (stereo not given)", "GI50", "35.2 µM (inactive)"),
    ("c1ccc(/N=C(\\N2CCCC2)N(CCN2CCCC2)c2ccccc2)cc1", "GI50", "29.8 µM (inactive)"),
    ("O=S1OC[C@H](CCCl)O1 (stereo not given in full)", "GI50", "> 100 µM (inactive)"),
    ("Cc1ccc(C2=Nn3c(nc4sc5c(c4c3=O)CCCC5)SC2)cc1", "GI50", "> 100 µM (inactive)"),
    ("COc1ccc(C2=NC(C)(C)CO2)cc1", "GI50", "> 100 µM (inactive)"),
]

* * *

Reported GI50 values for the following compounds.
System: TK-10
Assay: NCI tumour cell line growth inhibition, 48 h
The source made the active and inactive calls. Rule as the data show it: active = GI50 up to about 1.1 µM and inactive = higher.
measurement_label: GI50

# compound, tested_target, measurement_label, recorded_value
rows = [
    ("c1ccc(C2SCc3nc4ccccc4n32)cc1 (stereo unspecified)", "TK-10", "GI50", "52.4 µM (inactive)"),
    ("C=CCC1C(=O)C(C(=O)OC)N2CCc3c([nH]c4ccccc34)C12 (stereo unspecified)", "TK-10", "GI50", "> 100 µM (inactive)"),
    ("Cc1ccc(S(=O)(=O)N2CCC2c2ccccc2)cc1 (stereo unspecified)", "TK-10", "GI50", "> 100 µM (inactive)"),
    ("CC#COS(=O)(=O)c1ccc(C)cc1", "TK-10", "GI50", "> 100 µM (inactive)"),
    ("c1ccc2c3c([nH]c2c1)C1CCCN1CC3 (stereo unspecified)", "TK-10", "GI50", "> 10 µM (inactive)"),
    ("COC1OC(CO)C(O)C(O)C1Br (stereo unspecified)", "TK-10", "GI50", "> 100 µM (inactive)"),
]

* * *

Test system: HL-60
Assay: NCI tumour cell line growth inhibition, 48 h
Activity calls are given as the source filed them. Rule as the data show it: active = GI50 up to about 1.1 µM and inactive = higher.
Labels: active, inactive

# molecule, label
rows = [
    ("O=Cc1c(O)c(C(=O)Nc2ccc3[nH]c(=O)[nH]c3c2)cc2ccccc12", "inactive"),
    ("O=c1c2ccccc2n2cnc3ccc(NCCNCCO)c1c32", "inactive"),
    ("Clc1ccc(-c2c(C3=NCCN3)nnn2-c2ccccc2)cc1", "inactive"),
    ("Cn1c(-c2c(C3=CC(=O)N(c4ccccc4)C3=O)c3ccccc3n2C)cc2ccccc21", "inactive"),
    ("C/C(=C\\CSCC(N)C(=O)O)CC/C=C(\\C)CNc1ccccc1 (stereo unspecified)", "inactive"),
    ("COc1cc(C(=O)C/C(CCCC(=O)Nc2ccccc2[N+](=O)[O-])=N/NC(=O)c2cc3ccccc3cc2O)ccc1O", "active"),
]
